- System: AKR/Lw mice, AKR lymphoma ip, median survival T/C
- Protocol text: NCI In Vivo Anticancer Drug Screen. Data for tumor model Lymphoma AKR (Transplanted) (intraperitoneal) in AKR/Lw mice
- Test parameters: endpoint: median survival time; dose: 400.0 mg/kg/injection; schedule: Q01DX001 (ip); vehicle: saline; higher = longer survival
Toxic doses and inconclusive results are not listed.
Measure name: T/C

Below, 5 compounds whose answers are already recorded.
In [3]: df
Out[3]:
                                   compound   reported_result
0  CCCCCCCCC(=O)N1CC(C)OC(C)C1 (configuration not stated)  100 % of control
1             CC12CC3CC(C1)CC(C(=O)O)(C3)C2  108 % of control
2  COc1cccc2c1CCC1=C2CC2C(=O)C1CCC2(C)O (configuration not stated)  100 % of control
3                     COc1cc(N)c2ncccc2c1SC  106 % of control
4            C/C(=C\Cl)CN1C(=O)c2ccccc2C1=O   93 % of control

Form field T/C, entry C1=CC2(OCCO2)C2CC=CC3(OCCO3)C2C1 (configuration not stated) : 95 % of control

The compound identified as `Cc1cc(NS(=O)(=O)c2ccc(N)cc2)no1` registered its T/C at 96 % of control

Record summary for ClC1=C(Cl)C2(Cl)C3(Cl)C(Cl)=C(Cl)C(Cl)(C34OCCO4)C2(Cl)C12OCCO2 (configuration not stated) : reported T/C = 108 % of control
